Entries and their kon
# STUDY SYSTEM: T1, soluble extracellular domain of human α-Klotho (aa 1-980) fused to a 6xHis tag (human, UniProt Q9UEF7 34-980)
# T1 construct: Secreted from HEK293 EBNA cells; also called sKLA; soluble α-Klotho
# T1 sequence: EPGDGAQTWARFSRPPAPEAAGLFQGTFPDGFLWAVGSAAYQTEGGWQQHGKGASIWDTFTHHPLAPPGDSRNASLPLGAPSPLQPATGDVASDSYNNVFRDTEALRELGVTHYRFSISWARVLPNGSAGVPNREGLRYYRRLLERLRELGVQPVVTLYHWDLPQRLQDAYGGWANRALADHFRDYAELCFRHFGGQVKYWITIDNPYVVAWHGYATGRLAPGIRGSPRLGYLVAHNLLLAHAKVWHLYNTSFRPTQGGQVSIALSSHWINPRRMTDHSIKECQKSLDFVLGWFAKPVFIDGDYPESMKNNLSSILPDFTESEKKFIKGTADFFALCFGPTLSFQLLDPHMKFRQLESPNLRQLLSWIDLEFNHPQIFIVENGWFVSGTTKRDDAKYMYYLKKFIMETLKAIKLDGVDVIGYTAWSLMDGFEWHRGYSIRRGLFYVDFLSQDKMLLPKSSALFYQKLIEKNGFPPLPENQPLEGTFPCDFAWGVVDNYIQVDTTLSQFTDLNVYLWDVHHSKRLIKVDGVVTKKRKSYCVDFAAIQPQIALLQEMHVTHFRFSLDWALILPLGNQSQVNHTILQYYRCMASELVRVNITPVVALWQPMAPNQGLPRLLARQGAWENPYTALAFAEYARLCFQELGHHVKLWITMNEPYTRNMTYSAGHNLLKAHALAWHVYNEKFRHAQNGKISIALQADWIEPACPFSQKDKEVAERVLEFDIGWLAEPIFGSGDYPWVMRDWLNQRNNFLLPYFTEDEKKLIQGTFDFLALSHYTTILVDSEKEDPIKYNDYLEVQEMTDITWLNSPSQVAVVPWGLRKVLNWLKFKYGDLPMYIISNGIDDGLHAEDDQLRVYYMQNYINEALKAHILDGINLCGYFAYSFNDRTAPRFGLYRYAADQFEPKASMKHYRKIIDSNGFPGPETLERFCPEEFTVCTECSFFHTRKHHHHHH
# ASSAY SUMMARY: BLI; FLAG-tagged FGF23 captured by anti-FLAG M2 on anti-mouse Fc sensors, sKLA 6.25-200 nM as analyte, 1:1 fit
Please respond with the number in M⁻¹ s⁻¹ and leave the unit unwritten.

The reported value for FLAG-tagged human FGF23 C206S/C244S/D188A mutant expressed in Expi293F cells (ligand, also called FGF23-CS D188A) DYKDDDDKYPNASPLLGSSWGGLIHLYTATARNSYHLQIHKNGHVDGAPHQTIYSALMIRSEDAGFVVITGVMSRRYLCMDFRGNIFGSHYFDPENCRFQHQTLENGYDVYHSPQYHFLVSLGAAKAAFLPGMNPPPYSQFLSRRNEIPLIHFNTPIPRQHTQSAEDDSERAPLNVLKPRARMTPAPASSSQELPSAEDNSPMASDPLGVVRGGRVNTHAGGTGPEGSRPFAKFI in terms of kon is 250000

The reported value for FLAG-tagged human FGF23 C206S/C244S mutant expressed in Expi293F cells (ligand, O-linked glycosylation (sites not given), also called FGF23-CS; mFGF23-CS) DYKDDDDKYPNASPLLGSSWGGLIHLYTATARNSYHLQIHKNGHVDGAPHQTIYSALMIRSEDAGFVVITGVMSRRYLCMDFRGNIFGSHYFDPENCRFQHQTLENGYDVYHSPQYHFLVSLGAAKAAFLPGMNPPPYSQFLSRRNEIPLIHFNTPIPRQHTQSAEDDSERDPLNVLKPRARMTPAPASSSQELPSAEDNSPMASDPLGVVRGGRVNTHAGGTGPEGSRPFAKFI in terms of kon is 230000

The reported value for FLAG-tagged human FGF23 (aa 25-251) expressed in Expi293F cells (ligand, O-linked glycosylation (sites not given); Cys206-Cys244 disulfide bridge, also called FGF23-WT; mFGF23-WT) DYKDDDDKYPNASPLLGSSWGGLIHLYTATARNSYHLQIHKNGHVDGAPHQTIYSALMIRSEDAGFVVITGVMSRRYLCMDFRGNIFGSHYFDPENCRFQHQTLENGYDVYHSPQYHFLVSLGAAKAAFLPGMNPPPYSQFLSRRNEIPLIHFNTPIPRQHTQSAEDDSERDPLNVLKPRARMTPAPASCSQELPSAEDNSPMASDPLGVVRGGRVNTHAGGTGPEGCRPFAKFI in terms of kon is 260000

The reported value for FLAG-tagged human FGF23 D188A mutant expressed in Expi293F cells (ligand) DYKDDDDKYPNASPLLGSSWGGLIHLYTATARNSYHLQIHKNGHVDGAPHQTIYSALMIRSEDAGFVVITGVMSRRYLCMDFRGNIFGSHYFDPENCRFQHQTLENGYDVYHSPQYHFLVSLGAAKAAFLPGMNPPPYSQFLSRRNEIPLIHFNTPIPRQHTQSAEDDSERAPLNVLKPRARMTPAPASCSQELPSAEDNSPMASDPLGVVRGGRVNTHAGGTGPEGCRPFAKFI in terms of kon is 280000
